Target: SSTR2 (Homo sapiens)
Sequence (P30874 whole entry): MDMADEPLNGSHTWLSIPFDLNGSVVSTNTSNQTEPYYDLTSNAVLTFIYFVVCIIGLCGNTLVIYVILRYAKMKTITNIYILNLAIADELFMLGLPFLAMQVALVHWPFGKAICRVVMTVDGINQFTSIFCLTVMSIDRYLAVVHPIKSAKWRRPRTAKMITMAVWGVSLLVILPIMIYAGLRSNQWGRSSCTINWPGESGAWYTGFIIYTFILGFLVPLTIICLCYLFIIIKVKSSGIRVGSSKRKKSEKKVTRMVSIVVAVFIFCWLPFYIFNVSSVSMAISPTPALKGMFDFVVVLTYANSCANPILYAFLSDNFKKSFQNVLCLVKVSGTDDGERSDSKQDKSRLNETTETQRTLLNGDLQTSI
Assay: SSTR binding affinity by radioligand binding competition assay ([125I]-Tyr11-Somatostatin, membrane extracts)
Details: radioligand competition, [125I]-Tyr11-Somatostatin 0.1 nM, membrane extracts; Ki from IC50 by Cheng Prusoff; read-out: SSTR2 Ki
Procedure: Macrocyclic peptides in this invention were tested for binding to SSTR protein by a radioligand binding competition assay. […] Nonspecific binding is determined by co-incubation with 200-fold excess of cold competitor (SST28). […] The plates are incubated 15 min on an orbital shaker and then counted with a TopCount™ for 1 min/well. […]
pKi: −log10 of the molar value. Numbered stars: 1 amine (or outer) side, 2 acyl side, 3 side chain; on linkers, the order of the positions; unused ones are H or OH. Square brackets hold non-standard residues; d marks the D form. Side chains are listed from the residue outwards. Peptide text beside a SMILES is read from it. * marks the point of attachment. DOTA(Lu)NH(CH2)6NHCOCH2 = O=C(CN1CCN2CCN3CCN(CC1)CC(=O)[O][Lu]([O]C(=O)C2)[O]C(=O)C3)NCCCCCCNC(=O)C*; DOTA(Lu) = O=C1CN2CCN3CCN(CC(=O)*)CCN(CC2)CC(=O)[O][Lu]([O]1)[O]C(=O)C3; X5 = O=C(CN1CCN2CCN3CCN(CC1)CC(=O)[O][Lu]([O]C(=O)C2)[O]C(=O)C3)NCC*; X7 = O=C1CN2CCN3CCN(CC2)[C@H](CCC(=O)*)C(=O)[O][Ga]([O]1)[O]C(=O)C3; Ala(piperidin-4-yl) = O=C([C@H](CC1CCN([*:3])CC1)N[*:1])[*:2]; dTrp(βS-Me) = C[C@@H](c1c[nH]c2ccccc12)[C@@H](N)C(=O)O; dTrp(5-Me) = Cc1ccc2[nH]cc(C[C@@H](N)C(=O)O)c2c1; Tyr(3,5-F2) = N[C@@H](Cc1cc(F)c(O)c(F)c1)C(=O)O; Dip = N[C@H](C(=O)O)C(c1ccccc1)c1ccccc1; Trx = NC[C@H]1CC[C@H](C(=O)O)CC1; NMehCys = CN[C@@H](CCS)C(=O)O; NMeK = CN[C@@H](CCCCN)C(=O)O; NMeDap = CN[C@@H](CN)C(=O)O; NMeS = CN[C@@H](CO)C(=O)O; GABA = NCCCC(=O)O
Assignment: determine reported pKi for the given compounds.

{"compound": "C[C@@H](O)[C@@H]1NC(=O)[C@H](CCCCN)NC(=O)[C@@H](Cc2c[nH]c3ccccc23)NC(=O)[C@H](Cc2ccc(O)cc2)NC(=O)[C@H](C2CCN(C(=O)CCCCCNC(=O)CN3CCN4CCN5CCN(CC3)CC(=O)[O][Lu]([O]C(=O)C4)[O]C(=O)C5)CC2)N(C)C(=O)[C@H](Cc2ccccc2)NC1=O", "tgt": "SSTR2 (Homo sapiens)", "result": "7.00 to 7.48"}
{"compound": "C[C@@H](O)[C@@H]1NC(=O)[C@H](CC2CCNCC2)NC(=O)[C@@H]([C@@H](C)c2c[nH]c3ccccc23)NC(=O)[C@H](Cc2ccc(O)cc2)NC(=O)[C@H](CNC(=O)[C@H](CC(=O)O)NC(=O)CN2CCN3CCN4CCN(CC2)CC(=O)[O][Lu]([O]C(=O)C3)[O]C(=O)C4)N(C)C(=O)[C@H](Cc2ccccc2)NC1=O [RB-0006160] (cyclo(F[NMeDap]([Asp-DOTA(Lu)])Y[dTrp(βS-Me)][Ala(piperidin-4-yl)]T))", "tgt": "SSTR2 (Homo sapiens)", "result": "7.48 to 8.00"}
{"compound": "C[C@@H](O)[C@@H]1NC(=O)[C@H](CCCCN)NC(=O)[C@@H](Cc2c[nH]c3ccccc23)NC(=O)[C@H](Cc2cc(F)c(O)c(F)c2)NC(=O)[C@H](CCSCC(=O)NCCCCCCNC(=O)CN2CCN3CCN4CCN(CC2)CC(=O)[O][Lu]([O]C(=O)C3)[O]C(=O)C4)N(C)C(=O)[C@H](Cc2ccccc2)NC1=O [RB-0005740] (cyclo(F[NMehCys](DOTA(Lu)NH(CH2)6NHCOCH2)[Tyr(3,5-F2)][dW]KT))", "tgt": "SSTR2 (Homo sapiens)", "result": "> 9.00"}
{"compound": "C[C@@H](O)[C@@H]1NC(=O)[C@H](CC2CCNCC2)NC(=O)[C@@H]([C@@H](C)c2c[nH]c3ccccc23)NC(=O)[C@H](Cc2ccc(O)cc2)NC(=O)[C@H](CCCCNC(=O)[C@H]2CC[C@H](CNC(=O)CC[C@@H]3C(=O)[O][Ga]4[O]C(=O)CN5CCN(CCN3CC5)CC(=O)[O]4)CC2)N(C)C(=O)[C@H](Cc2ccccc2)NC1=O [RB-0006470] (cyclo(F[NMeK]([Trx-X7])Y[dTrp(βS-Me)][Ala(piperidin-4-yl)]T))", "tgt": "SSTR2 (Homo sapiens)", "result": "8.48 to 9.00"}

Each of the following entries comes with a recorded value; kindly state pKi for each.
1. C[C@@H](O)[C@@H]1NC(=O)[C@H](CC2CCNCC2)NC(=O)[C@@H]([C@@H](C)c2c[nH]c3ccccc23)NC(=O)[C@H](Cc2ccc(O)cc2)NC(=O)[C@H](CNC(=O)[C@H](CCC(=O)O)NC(=O)CN2CCN3CCN4CCN(CC2)CC(=O)[O][Lu]([O]C(=O)C3)[O]C(=O)C4)N(C)C(=O)[C@H](Cc2ccccc2)NC1=O [RB-0006215] (cyclo(F[NMeDap]([Glu-DOTA(Lu)])Y[dTrp(βS-Me)][Ala(piperidin-4-yl)]T))
2. C[C@@H](O)[C@@H]1NC(=O)[C@H](CCCCN)NC(=O)[C@@H](Cc2c[nH]c3ccccc23)NC(=O)CNC(=O)[C@H](CCSCC(=O)NCCCCCCNC(=O)CN2CCN3CCN4CCN(CC2)CC(=O)[O][Lu]([O]C(=O)C3)[O]C(=O)C4)N(C)C(=O)[C@H](Cc2ccccc2)NC1=O [RB-0005694] (cyclo(F[NMehCys](DOTA(Lu)NH(CH2)6NHCOCH2)G[dW]KT))
3. C[C@@H](O)[C@@H]1NC(=O)[C@H](CC2CCNCC2)NC(=O)[C@@H]([C@@H](C)c2c[nH]c3ccccc23)NC(=O)[C@H](Cc2ccc(O)cc2)NC(=O)[C@H](COCCNC(=O)CN2CCN3CCN4CCN(CC2)CC(=O)[O][Lu]([O]C(=O)C3)[O]C(=O)C4)N(C)C(=O)[C@H](Cc2ccccc2)NC1=O [RB-0006095] (cyclo(F[NMeS](X5)Y[dTrp(βS-Me)][Ala(piperidin-4-yl)]T))
4. C[C@@H](O)[C@@H]1NC(=O)[C@H](CCCCN)NC(=O)[C@@H](Cc2c[nH]c3ccccc23)NC(=O)[C@H](Cc2ccc(O)cc2)NC(=O)[C@H](CCSCC(=O)N[C@H](CCCCNC(=O)CN2CCN3CCN4CCN(CC2)CC(=O)[O][Lu]([O]C(=O)C3)[O]C(=O)C4)C(=O)O)N(C)C(=O)[C@H](Cc2ccccc2)NC1=O
5. C[C@@H](O)[C@@H]1NC(=O)[C@H](CC2CCNCC2)NC(=O)[C@@H]([C@@H](C)c2c[nH]c3ccccc23)NC(=O)[C@H](Cc2ccc(O)cc2)NC(=O)[C@H](CCCCNC(=O)CCCNC(=O)CN2CCN3CCN4CCN(CC2)CC(=O)[O][Lu]([O]C(=O)C3)[O]C(=O)C4)N(C)C(=O)[C@H](Cc2ccccc2)NC1=O [RB-0006403] (cyclo(F[NMeK]([GABA-DOTA(Lu)])Y[dTrp(βS-Me)][Ala(piperidin-4-yl)]T))
6. Cc1ccc2[nH]cc(C[C@H]3NC(=O)[C@H](Cc4ccc(O)cc4)NC(=O)[C@H](CCSCC(=O)NCCCCCCNC(=O)CN4CCN5CCN6CCN(CC4)CC(=O)[O][Lu]([O]C(=O)C5)[O]C(=O)C6)N(C)C(=O)[C@H](Cc4ccccc4)NC(=O)[C@H]([C@@H](C)O)NC(=O)[C@H](CC4CCNCC4)NC3=O)c2c1 [RB-0006074] (cyclo(F[NMehCys](DOTA(Lu)NH(CH2)6NHCOCH2)Y[dTrp(5-Me)][Ala(piperidin-4-yl)]T))

["7.48 to 8.00", "8.48 to 9.00", "> 9.00", "8.48 to 9.00", "8.48 to 9.00", "8.00 to 8.48"]

Supply measured pKi of C[C@@H]1NC(=O)[C@H]([C@@H](C)O)NC(=O)[C@H](CC2CCNCC2)NC(=O)[C@@H](Cc2c[nH]c3ccccc23)NC(=O)[C@H](C(c2ccccc2)c2ccccc2)NC(=O)[C@H](CCSCC(=O)NCCCCCCNC(=O)CN2CCN3CCN4CCN(CC2)CC(=O)[O][Lu]([O]C(=O)C3)[O]C(=O)C4)N(C)C1=O [RB-0005809] (cyclo(A[NMehCys](DOTA(Lu)NH(CH2)6NHCOCH2)[Dip][dW][Ala(piperidin-4-yl)]T)) in your reply.
8.48 to 9.00
